The values you see were collected from ChEMBL document CHEMBL1201862.

# Test system: NCI-H460
# assay comment: NCI tumour cell line growth inhibition, 48 h
Active and inactive are the calls of the source. Cut-off read from the data, not from the text of the source: active = GI50 up to about 1.1 µM and inactive = higher.
Outcome codes: active, inactive

| molecule | label class |
| --- | --- |
| c1ccc(/C(=N\Nc2nc3ccccc3[nH]2)c2ccccn2)cc1 | active |
| Nc1c2c(nc3ccccc13)-c1ccccc1NCCC2 | inactive |
| CCOC(=O)CC(=O)ON(C)C(=O)Cc1ccccc1 | inactive |
| CCOC(=O)C1C(c2ccc(OC)cc2)c2c(n[nH]c2O)CC1(C)O (centres undefined) | inactive |
| CN1C(c2ccccc2)CC(C)(O)CC1c1ccccc1 (centres undefined) | inactive |
| Cc1cc(Cl)ccc1NC(=O)C(=O)Cc1nc2ccc(C(=O)c3ccccc3)cc2nc1O | inactive |
| C=C(Cl)COC(=O)Nc1cccc(Cl)c1 | inactive |
| O=S(=O)(NC1CCCCC1)c1ccc2c(c1)OCCOCCOCCOCCO2 | inactive |
| O=S(=O)(O)CCSSCCS(=O)(=O)O | inactive |

* * *

Catalogue of GI50 readings, one per entry.
# System: CAKI-1
# assay comment: NCI tumour cell line growth inhibition, 48 h
Calls of active or inactive are those of the source. Cut-off read from the data, not from the text of the source: active = GI50 up to about 1.1 µM and inactive = higher.

| molecule | GI50 |
| --- | --- |
| Cc1cccc(NC(=O)/C=C/c2ccccc2)c1C | > 100 µM (inactive) |
| O=C1CC(/C=C/c2ccco2)=C(O)C1=O | 14.6 µM (inactive) |
| CCCCC(C(=O)N/N=C/c1ccc([N+](=O)[O-])o1)C(=O)N/N=C/c1ccc([N+](=O)[O-])o1 | 4.06 µM (inactive) |
| CN1CCCC(OC(=O)c2cc3cc(CCl)ccc3oc2=O)C1 (stereo not drawn) | 23.7 µM (inactive) |
| Cc1ccc(OCC2OC(C#N)C(Oc3ccc(C)cc3)C2Oc2ccc(C)cc2)cc1 (stereo not drawn) | > 100 µM (inactive) |
| Nc1cc(Cl)cc2cc(Cl)cnc12 | > 100 µM (inactive) |
| COc1cc(C2SCC(=O)N2c2ccc(NC(=O)c3ccc(N4C(=O)CSC4c4cc(OC)c(OC)c(OC)c4)cc3)cc2)cc(OC)c1OC (stereo not drawn) | > 100 µM (inactive) |
| O=S(=O)(N/C(=N\O)Nc1ccc(Cl)cc1)c1cc(S(=O)(=O)c2ccccc2)cs1 | 16.6 µM (inactive) |

* * *

# System: NCI-H226
# assay comment: NCI tumour cell line growth inhibition, 48 h
Active and inactive are the calls of the source. Rule as the data show it: active = GI50 up to about 1.1 µM and inactive = higher.
Outcome codes: active, inactive

| compound | label class |
| --- | --- |
| Clc1cc(-c2ccccc2)nc(Nc2nc3ccccc3[nH]2)n1 | inactive |
| CC1=C(C(=O)NCc2ccccc2)C(c2ccccc2[N+](=O)[O-])C(C(=O)NCc2ccccc2)=C(C)N1 | inactive |
| COC(COC(=O)N1CCN(C=O)CC1)C1=C(N2CC2)C(=O)C(C)=C(N2CC2)C1=O (stereo unspecified) | active |
| N#Cc1nc(C(CO)N(Cc2ccccc2)C(=O)O)oc1N (stereo unspecified) | inactive |
| N#CC1(C#N)C2=C(CCCC2)NC(c2ccc(Br)cc2)C1(C#N)C#N (stereo unspecified) | inactive |
| ClC1=NN=C(c2c[nH]c3ccccc23)CC1NCc1ccccc1 (stereo unspecified) | inactive |

* * *

# System: KM12
# assay comment: NCI tumour cell line growth inhibition, 48 h
Calls of active or inactive are those of the source. Rule as the data show it: active = GI50 up to about 1.1 µM and inactive = higher.
Outcome codes: Yes for active, No for inactive

| molecule | label class |
| --- | --- |
| Cc1ccc(/N=N/C(=N\c2ccc(Cl)cc2)c2ccc(N(CCC#N)CCC#N)cc2)cc1 | No |
| CCCCCCCCCCCC(=O)OC[C@H](C[As](=O)(O)O)OC(=O)CCCCCCCCCCC | No |
| CC(C)[Si](Oc1cc2c3c(ccc2c(O)c1[C@@H](C)CO[Si](C)(C)C(C)(C)C)C(C)(C)CCC3)(C(C)C)C(C)C | No |
| CC(C)(C)OC(=O)NC1CCCC1C(O)(C1=CCCC1)C1=CCCC1 (stereo unspecified) | No |
| Cc1ccc(/C=C2\CCC/C(=C\c3ccc(O)c(CN4CCCCC4)c3)C2=O)cc1 | No |
| CN(C)CCCOC(=O)C(O)(Cc1ccccc1)C1CC1 (stereo unspecified) | No |
| c1ccc(/C(=N\Nc2nc3ccccc3[nH]2)c2ccccn2)cc1 | Yes |
| O=C(/C=C/c1ccc2c(c1)OCO2)Cc1nc2ncccc2[nH]c1=O | No |
| CC1(C)C2CCC1(CS(=O)(=O)Nc1ccccc1)C(=O)C2 (stereo unspecified) | No |
| COc1ccc(C2C(Cl)C(=O)N2NC(=O)c2ccc(N)cc2)cc1 (stereo unspecified) | No |
| O=C1CSC2=NC3=C(COC/C3=C\c3ccc(F)cc3)C(c3ccc(F)cc3)N12 (stereo unspecified) | No |
| O=C1Nc2ccccc2/C1=C1/Nc2ccccc2/C1=N\OCCNCC(O)C(O)C(O)C(O)CO (stereo unspecified) | No |
| Cc1ccc(C(=O)CC2=Nc3nnc(CCCCCCCc4nnc5n4C(=O)C(CC(=O)c4ccc(C)cc4)=N5)n3C2=O)cc1 | No |
| NC1(c2cc3ccccc3s2)CCCC1 | No |
| O=CC1CCCc2ccccc21 (stereo unspecified) | No |
| C/C(CC(=O)Nc1cccc([N+](=O)[O-])c1)=N\NC(=O)C[n+]1ccccc1 | No |
| CC[C@@]1(O)C(=O)OCc2c1cc1n(c2=O)Cc2c-1nc1ccccc1c2/C=N\NC(=O)C(N)CS (stereo partly specified) | No |
| C=C1C(=O)OC2C1CCC(C)C1C=CC(=O)C12C (stereo unspecified) | No |
| C=C(NC(=O)C(=C)NC(=O)c1csc(C2=NC3c4csc(n4)C4NC(=O)c5csc(n5)C(C(C)(O)C(C)O)NC(=O)C5CSC(=N5)/C(=C/C)NC(=O)C(C(C)O)NC(=O)c5csc(n5)C3(CC2)NC(=O)C(C)NC(=O)C(=C)NC(=O)C(=C)NC(=O)C(C(C)C)NC2C=Cc3c(C(C)O)cc(nc3C2O)C(=O)OC4C)n1)C(N)=O (stereo unspecified) | No |
| Clc1ccc2c(Cl)nc(-c3ccccc3)nc2c1 | No |
| COc1ccc(-n2/c(=N/C(=S)N(C)C)ss/c2=N\C(=S)N(C)C)cc1 | No |
| Cn1c(=O)c2nc3sc4ccccc4c(=N)n3c2n(C)c1=O | No |
| CN(C)C1=NC2=S(SC(Nc3ccccc3)=N2)S1 (stereo unspecified) | No |
| Nc1cc(Cl)cc2cc(Cl)cnc12 | No |
| CCCCNC(=S)OCCC(C)CCCC(C)C (stereo unspecified) | No |
| CCOC(=O)c1c(-c2ccccc2)c(-c2ccccc2)cn1C | No |
| O=S(=O)(NNc1ccccc1)c1ccccc1 | No |
| NS(=O)(=O)c1ccc(/N=N/c2cccnc2O)cc1 | No |
| CN1OC(=O)N(C)C1c1ccccc1 (stereo unspecified) | No |
| CC(C)(C)CNCCO | No |
| CCOC(=O)NC(C(F)(F)F)(C(F)(F)F)P(=O)(OC(C)C)OC(C)C | No |
| Cc1ccc(OCC2OC(C#N)C(Oc3ccc(C)cc3)C2Oc2ccc(C)cc2)cc1 (stereo unspecified) | No |
| COc1cc(S(=O)(=O)Nc2ccc(-c3csc(/N=C\c4ccccc4)n3)cc2)ccc1Cl | No |
| NC(Cc1cccnn1)C(=O)O (stereo unspecified) | No |
| O=C(Nc1cc(Cl)ccc1Cl)c1cc2cccc(Br)c2oc1=O | No |
| CC(=O)NC(CCCCN(Cc1ccccc1)C(=O)N(CCCl)N=O)C(=O)NCc1ccccc1 (stereo unspecified) | No |
| Cc1cc(Cl)ccc1NC(=O)C(=O)Cc1nc2ccc(C(=O)c3ccccc3)cc2nc1O | No |
| CN(CCCNCc1ccccn1)Cc1ccccc1O | No |
| CN(C)c1ncnc2c1ncn2CCn1cnc2c(N(C)C)ncnc21 | No |
| O=C(c1ccccc1)[C@H]1Nc2ccc(Cl)cc2[C@H]2OCCC[C@@H]12 | No |
| Oc1cccc(-c2ccc3c4c2O[C@H]2c5[nH]c6ccccc6c5C[C@@]5(O)[C@@H](C3)N(CC3CC3)CC[C@]425)c1 | No |
